Test system: NCI/ADR-RES ovarian
Assay: NCI-60 one-dose screen, 48 h (100 = growth as untreated, 0 = no growth, -100 = all killed)
Conditions: 10 µM unless noted
This is part of a sample that, as a whole, favours compounds with a hit. Of some 83,000 tested, about 20% had one in any assay.
Give growth for every item shown.
One number for each entry, in %.

CCCCCC/C=N/Nc1ccc([N+](=O)[O-])cn1 : 102
COc1cccc(C2CC(c3cc(OC)c(OC)c(OC)c3)=NN2)c1 (stereo unspecified) : 63.4

Below are some molecules; for each one, tell me its growth.
1. CCCCCCCCCCCC(=O)OCCNC(=O)C[n+]1ccccc1
2. O=C(CSc1nnc(-c2ccccc2)o1)Nc1ccc(C(=O)/C=C/c2ccccc2)cc1
3. FC(F)(F)c1cn(CC2CNC2)c2ncnc(Cl)c12
4. O=C1c2ccccc2OC=C(c2ccccc2)N1CCCCN1CCCCC1

Solution:
113
53.6
102
88.8

====

System: UACC-257 melanoma
Test: NCI-60 one-dose screen, 48 h (100 = growth as untreated, 0 = no growth, -100 = all killed)
Conditions: 10 µM unless noted
The panel holds about 83,000 compounds, 20% with a hit somewhere; the sample as a whole holds those more often.
testReadout: growth (%)
One number for each entry, in %.

Study these solved cases before continuing.
COc1cc(NC(C)CCCN2C(=O)c3ccccc3C2=O)c2nccc(C)c2c1OC (centres undefined) : 106
COc1ccc(C[C@H](N)C(=O)N[C@@H]2[C@@H](CO)OC(n3cnc4c(N(C)C)ncnc43)[C@@H]2O)cc1 (some centres undefined) : -64.7
NC(=O)C1=C[C@H]2[C@H]3C=C[C@@]2(O)C(=O)O[C@@H]3O1 : 28.9

Below are some molecules; for each one, tell me its growth.
1. NCC(=O)NS(=O)(=O)OC[C@H]1O[C@@H](n2cnc3c(N)ncnc32)[C@H](O)[C@@H]1O
2. COc1cc(C(=O)NNC(=O)c2ccccc2C(=O)O)cc(OC)c1OC

Solution:
[27.4, 69.9]

====

Give growth for every item shown.
Test system: LOX IMVI melanoma
Assay: NCI-60 one-dose screen, 48 h (100 = growth as untreated, 0 = no growth, -100 = all killed)
Conditions: 10 µM unless noted
About 83,000 compounds went through this panel and 20% of them were active in at least one assay; those are over-represented in the sample as a whole.
One number for each entry, in %.

Study these solved cases before continuing.
Nn1c(SCC(=O)Nc2cc(Cl)c(Cl)cc2Cl)nnc1-c1cc(F)c(Cl)cc1Cl : 129
CC(=O)N[C@@H](CNC(=O)c1cc(NC(=O)c2cc(NC(=O)c3cc(NC(=O)c4nccn4C)cn3C)cn2C)cn1C)CC(=O)Nc1cn(C)c(C(=O)Nc2cc(C(=O)Nc3cc(C(=O)Nc4cc(C(=O)NCCCN(C)CCCNC(=O)c5cccc(C(=O)O)c5)n(C)c4)n(C)c3)n(C)c2)n1 : 80.7
CC(NCCC(c1ccccc1)c1ccccc1)c1ccccc1 (configuration not stated) : 74.6
O=C(COc1ccc(Cl)cc1Cl)N1N=C(c2ccc(Cl)cc2Cl)CC1(O)c1cc(F)c(Cl)cc1Cl (configuration not stated) : 128
O=C(NCCNc1nccc(-c2c(-c3cccc(O)c3)nc3sccn23)n1)c1cc(N2CCOCC2)cc(C(F)(F)F)c1 : 52.3

Below are some molecules; for each one, tell me its growth.
1. O=S(=O)(Nc1cccc2cc(OS(=O)(=O)c3ccccc3)ccc12)c1ccccc1
2. CC(=O)O[C@@H]1[C@@H](OC(C)=O)[C@H](OC(C)=O)CO[C@H]1Nc1cccc2ccccc12

Solution:
[55.4, 88.8]
